# Tested on: M14
# Assay remarks: NCI tumour cell line growth inhibition, 48 h
The source made the active and inactive calls. Rule as the data show it: active = GI50 up to about 1.1 µM and inactive = higher. Peptide text beside a SMILES is read from it. * marks the point of attachment. Trt = c1ccc(C(c2ccccc2)(c2ccccc2)*)cc1; Cbz = O=C(OCc1ccccc1)*
Known GI50 of a selection of compounds

| Compound | Assay system | GI50 |
| --- | --- | --- |
| C=C1C(=O)OC2C1C(OC(=O)/C(C)=C/C)CC(O)(CCl)C1C(O)C3OC3(C)C21O (stereo not drawn) | M14 | 23.3 µM (inactive) |
| Clc1cc(Cl)c2c(Cl)cc(Cl)c3c2c1N=S=N3 | M14 | > 100 µM (inactive) |
| C/C(=C\COc1ccc2ccc(=O)oc2c1)CCC(=O)C(C)(C)O | M14 | 22 µM (inactive) |
| C[C@@H]1CC[C@@]2(OC1)O[C@H]1C[C@H]3[C@@H]4CC[C@H]5C[C@@H](OC6OC(CO)C(OC7OC(CO)C(O)C(OC8OCC(O)C(O)C8O)C7OC7OC(CO)C(O)C(O)C7O)C(O)C6O)[C@H](O)C[C@]5(C)[C@H]4CC[C@]3(C)[C@H]1[C@@H]2C (stereo partly drawn) | M14 | 15.2 µM (inactive) |
| Cc1ccc2c(c1)[n+]([O-])c(N)n[n+]2[O-] | M14 | > 100 µM (inactive) |
| C=CCN1C(=O)CC(=O)N(NC2=NNC3(C(=O)N2)c2ccccc2-c2ccccc23)C1=S | M14 | > 100 µM (inactive) |
| O=S1OC(c2ccccc2)(c2ccccc2)C(c2ccccc2)(c2ccccc2)O1 | M14 | > 100 µM (inactive) |
| O=C1CCCCC(=O)OC2(CCCCC2=O)CC1 (stereo not drawn) | M14 | > 100 µM (inactive) |
| CC(C)=CCCC(C)[C@H]1CC(O)C2(C)C3=CCC4C(C)(C)[C@@H](O)CC[C@]4(C)C3=CC[C@]12C (stereo partly drawn) | M14 | 3.27 µM (inactive) |
| CC1C=CC(O)[C@]2(CO)CC3(CCC12)OCCO3 (stereo partly drawn) | M14 | > 100 µM (inactive) |
| c1ccc(C2OC3(CCC[C@H]4C[C@H]43)O[C@H]2c2ccccc2)cc1 (stereo partly drawn) | M14 | 43.9 µM (inactive) |
| CN1Cc2c(nc(-c3ccccc3)c[n+]2[O-])N(C)C1 | M14 | > 100 µM (inactive) |
| O=C(O)c1ccccc1-c1ccccc1C(=O)Nc1ccc2c(c1)Cc1ccccc1-2 | M14 | 21.6 µM (inactive) |
| CC1(C)CC(=O)C(/C(=N/NC(=S)NN)C(=O)Nc2nc3ccc([N+](=O)[O-])cc3s2)C(=O)C1 | M14 | > 100 µM (inactive) |
| COC1OC2COC(=O)c3cc(O)c(O)c(O)c3-c3c(cc(O)c(O)c3O)C(=O)OC2C(O)C1O (stereo not drawn) | M14 | 43.9 µM (inactive) |
| COC(=O)C(CO)NC(=O)C(CSC(c1ccccc1)(c1ccccc1)c1ccccc1)NC(=O)OCc1ccccc1 (stereo not drawn) (Cbz-Cys(Trt)-Ser-OMe; configuration not given here) | M14 | 19.4 µM (inactive) |
| COc1cc(C[C@@H](C)N)cc(OC)c1 | M14 | > 100 µM (inactive) |
| CCOC(=O)NC1CC2CCC1(OC)C=C2C (stereo not drawn) | M14 | > 100 µM (inactive) |
